test: NCI Yeast Anticancer Drug Screen. Data for the mec2-1 strain (AID 157); conditions: S. cerevisiae mec2-1 strain, at 50.0 µM, hits give high values
The panel holds about 79,000 compounds, 15% with a hit somewhere; the sample as a whole holds those more often.
recordedMetric: growth inhibition (%)
Provide the reading as a plain figure in %.

[in] What value of growth inhibition has been recorded for this entry: Cc1cccc(C(=O)NCCN(C)C)c1[N+](=O)[O-]
[out] -20.9

[in] Which growth inhibition is listed for CCCCOC(=O)c1ccc(NC(=O)CCCN(CC)CC)cc1 ?
[out] -2.3

[in] Can you look up the measured growth inhibition of COc1ccc(C(=O)c2ccc(OC)cc2OC)cc1 for me?
[out] 1.7

[in] Field request: growth inhibition | item: O=c1c2cc([N+](=O)[O-])ccc2[nH]n1Cc1ccccn1
[out] 10.2

[in] Dear colleague, I am looking for the recorded growth inhibition of the following compound: NC(=O)N/N=C1\CC2CC1C1CCCC21 (centres undefined)
[out] 5.35

[in] Given O=C(Nc1nc2ncn(CCI)c2c(=O)[nH]1)c1ccccc1 , state its recorded growth inhibition.
[out] 6.55

[in] // lookup growth inhibition for Nc1nc([O-])c([I+]c2ccccc2)c(=O)[nH]1
[out] -11.8

[in] growth inhibition for C=CC1(c2ccc(Cl)c(Cl)c2)OCCO1 ?
[out] 15.8

[in] Name the recorded growth inhibition for O=C(c1ccccc1)C1CCC(C(=O)c2ccccc2)C1=O (centres undefined) .
[out] 14.3

[in] What value of growth inhibition has been reported for the following compound? COc1ccccc1C(O)C(C)(C)C (centres undefined)
[out] 2.45

[in] I would be grateful if you could share the reported growth inhibition for c1ccc(-c2nnn(-n3nnc(-c4ccccc4)n3)n2)cc1 .
[out] 12.3

[in] Endpoint output: growth inhibition of CC(CN1CCCC1)OC(=O)C(c1ccccc1)C1CCCC1 (centres undefined) . Value?
[out] -20.9

[in] For the compound shown here, C[n+]1ccc2ccccc2c1C#N , give the reported growth inhibition.
[out] 10.6

[in] Field request: growth inhibition | item: CCN(CC)C(=O)C1=C(C)NC(C)=C(C(=O)N(CC)CC)C1
[out] -55

[in] So what does the record say about growth inhibition for CCN(CC)Cc1cc(N=Nc2ccc3c(c2)c2ccccc2n3CC)c2ccccc2c1O ?
[out] 10.9

[in] If you can, please state the reported growth inhibition value of c1ccc2cc3c(cc2c1)oc1cc2ccccc2cc13 .
[out] -9.05

[in] // lookup growth inhibition for CC(C)NCCC(O)c1cc2ccccc2o1 (centres undefined)
[out] -4

[in] Find the recorded growth inhibition belonging to CCC(CC)c1nc2c([nH]1)c(=O)n(C)c(=O)n2C and report it.
[out] 8.1

[in] // growth inhibition lookup, key: CCOC(=O)C(N=Cc1ccc([N+](=O)[O-])cc1)C(O)c1ccc([N+](=O)[O-])cc1 (centres undefined)
[out] 5.15

[in] Need growth inhibition, item C[n+]1cccc(/C=C/c2ccc3cccc(O)c3n2)c1
[out] -3.75

[in] // query growth inhibition value for entry COc1cc(S(N)(=O)=O)c(OC)cc1N
[out] -28.2

[in] Looking for the measured growth inhibition of CC(=O)OC1COC(n2c(O)c(N=NC(N)=S)c3cc(Br)ccc32)C(OC(C)=O)C1OC(C)=O (centres undefined) , can you help?
[out] 8.2

[in] Sample O=C(/C=C(\O)C(=O)O)/C=C(\O)c1ccc(Cl)cc1 — what was its growth inhibition?
[out] 0.7

[in] Please report the recorded growth inhibition for CNC(CCCC1CCCCC1)C(=O)O (centres undefined) .
[out] 5.7

[in] # query: growth inhibition of entry COc1ccc(C(c2c(O)c3ccccc3n(C)c2=O)c2c(O)c3ccccc3n(C)c2=O)cc1
[out] -19.3

[in] Endpoint output: growth inhibition of CC1(C)C(=O)/C=C\C(=O)C(C)(C)C2=CC=C(O2)C(C)(C)C(=O)C(Br)C(Br)C(=O)C(C)(C)C2=CC=C1O2 (centres undefined) . Value?
[out] -18.1

[in] growth inhibition for COc1c(NC(=O)c2c(Br)c(Br)c(Br)c(Br)c2C(=O)O)cccc1[N+](=O)[O-] ?
[out] 6.65

[in] Name the reported growth inhibition value associated with the compound OC1CCCCC12CC2 (centres undefined)
[out] 1.5

[in] Dear colleague, I am looking for the recorded growth inhibition of the following compound: CON(C)c1nc(N(C)C)nc(N(C)C)n1
[out] 11.6

[in] Form field: reported growth inhibition of Cc1cc(Cl)nc(/N=C(\N)Nc2ccc(Cl)c(Cl)c2)n1
[out] 5.45

[in] Fill blank: measured growth inhibition of the compound COCCNc1cncc(C(N)=O)c1 is ____.
[out] 6.9

[in] Param item = COc1cc(/C=C2\Cc3ccccc3C2=O)cc(OC)c1OC ; retrieve measured growth inhibition.
[out] -14.8

[in] Request the reported growth inhibition associated with CCOCCC12CCCCC1C/C(=N/OC(C)=O)c1ccccc12 (centres undefined)
[out] -5.95

[in] GET /values?readout=growth inhibition&item= O=C(CCBr)OCc1ccccc1
[out] -7.45

[in] Item O=C1CSC(C(N=Nc2ccc(Cl)cc2)c2nc3ccccc3[nH]2)=N1 (centres undefined) has what recorded growth inhibition?
[out] -26.3

[in] Look up growth inhibition for this compound: CC(=O)N1C(NN(C)C)CCN1c1ccccc1 (centres undefined)
[out] -28.9

[in] Endpoint output: growth inhibition of CCCCCCCCCCCCCCCCOc1ccc2ccccc2c1 . Value?
[out] -6.25

[in] # lookup: growth inhibition of Nc1nc(-c2ccco2)cc(-c2ccc(CO)o2)n1
[out] 3.5

[in] Can you share its growth inhibition? I mean this compound: COc1cc(O)c2c(c1)C(=O)C1=C(C2=O)[C@@H](C)OC(C)C1 (some centres undefined)
[out] 10.2

[in] // lookup growth inhibition for CCC(C)(C#N)OC(C)=O (centres undefined)
[out] -26.6

[in] Any idea what growth inhibition was measured for O=C1NC(=O)C(=NC2C(=O)NC(=O)NC2=O)C(=O)N1 ?
[out] 29.4

[in] Give its growth inhibition value. Item: COc1ccc(C(=O)C2CC(=O)NC2=O)cc1 (centres undefined)
[out] -5.95

[in] What value of growth inhibition has been reported for the following compound? CN(C)c1ccc(/C=C/c2ccc(/C=C/c3ccc(N(C)C)cc3)cc2)cc1
[out] -9.9

[in] Reported growth inhibition, compound O=C1CCCCC1CN1CCOCC1 (centres undefined) : ____
[out] -24.2

[in] Any idea what growth inhibition was measured for Cc1cc(=O)oc2cc(OCc3ccccc3)cc(O)c12 ?
[out] 4.2

[in] I'd like to know its growth inhibition. The compound in question is CCCCCCCCCCCc1noc2c1C(=O)C(O)CC2 (centres undefined)
[out] -3.05

[in] Sample Cc1nc2n(c1C(N)=O)CCS2 — what was its growth inhibition?
[out] -5.65

[in] Find the recorded growth inhibition belonging to O=c1c2cc([N+](=O)[O-])ccc2n2n1Cc1ccccc1CC2 and report it.
[out] -0.9

[in] Bench note: what growth inhibition did COc1cc2c(cc1OC)[C@H]1Cc3cc(OC)c(OC)cc3[C@@H](C2)N1C(C)=O show?
[out] -11.2

The reported numbers originate from PubChem BioAssay (NCI).
